Target Desc: PD1-GFP (Homo sapiens, UniProt Q15116)
Construct: expressed in transfected cells; host or cells: U2OS
Sequence (Q15116 25-288): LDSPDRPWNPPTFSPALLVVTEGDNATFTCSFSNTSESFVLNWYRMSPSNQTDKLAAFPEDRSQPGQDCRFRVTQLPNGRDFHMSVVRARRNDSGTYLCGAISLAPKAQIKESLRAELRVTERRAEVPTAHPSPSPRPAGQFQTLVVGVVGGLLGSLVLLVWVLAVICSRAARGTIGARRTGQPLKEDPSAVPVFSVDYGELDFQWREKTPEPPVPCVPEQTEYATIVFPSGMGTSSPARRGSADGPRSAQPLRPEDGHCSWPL
Assay Protocol: Internalization assay (PD1-GFP), confocal imaging of PD1-GFP stable U2OS cells
Format: cell-based
Parameters: key to the marks not given beside the values
Run Conditions: 6 hr, 37° C.
Experimental: U2OS cells were transfected with PD1-GFP and stable receptor-expressing cells were selected using 0.5 mg/ml Geneticin in the culture medium. […] The plates were incubated overnight at 37° C. in 5% CO2. The following day, chemical compounds (10 mM in DMSO) were diluted 1:200 in culture medium, 6.25 μL of which was then added to each well of cells to produce a 1:1000 dilution overall and final compound concentration of 10 μM per well. […]
Measurement Kind: Internalized PD1-GFP punctate; 6 hr (10 μM)

- Compound: "CCN(CC)CCCC(C)Nc1c2ccc(Cl)cc2nc2ccc(OC)cc12 (stereo not shown) [Compound 16]"
  Target Desc: "PD1-GFP (Homo sapiens, UniProt Q15116)"
  Result: "+++"
- Compound: "Cc1ccc(S(=O)(=O)Nc2ccc(Br)cc2C(=O)Nc2ccc(C(F)(F)F)cc2)cc1 [Compound 8]"
  Target Desc: "PD1-GFP (Homo sapiens, UniProt Q15116)"
  Result: "++++"
- Compound: "CCCCCCCC(=O)Oc1ccc(Cl)cc1C(=O)Nc1ccc([N+](=O)[O-])cc1Cl [Compound 7]"
  Target Desc: "PD1-GFP (Homo sapiens, UniProt Q15116)"
  Result: "++++"
- Compound: "O=[N+]([O-])c1ccc(-c2nnc(-c3cc(Cl)ccc3O)[nH]2)cc1 [Compound 1]"
  Target Desc: "PD1-GFP (Homo sapiens, UniProt Q15116)"
  Result: "++++"
- Compound: "O=C(Nc1ccc(C(F)(F)F)cc1Cl)c1cc(Cl)ccc1O [Compound 5]"
  Target Desc: "PD1-GFP (Homo sapiens, UniProt Q15116)"
  Result: "++++"
- Compound: "CCN(CC)CCCC(C)Nc1ccnc2cc(Cl)ccc12 (stereo not shown) [Compound 19]"
  Target Desc: "PD1-GFP (Homo sapiens, UniProt Q15116)"
  Result: "+++"
- Compound: "CCCCc1oc2ccccc2c1C(=O)c1cc(I)c(OCCN(CC)CC)c(I)c1 [Compound 13]"
  Target Desc: "PD1-GFP (Homo sapiens, UniProt Q15116)"
  Result: "+++"
- Compound: "O=S(=O)(Nc1ccc(C(F)(F)F)cc1Cl)c1cc(Cl)ccc1O [Compound 4]"
  Target Desc: "PD1-GFP (Homo sapiens, UniProt Q15116)"
  Result: "++"
- Compound: "O=C(Nc1cc(Cl)cc(Cl)c1)c1cc(Cl)ccc1O [Compound 6]"
  Target Desc: "PD1-GFP (Homo sapiens, UniProt Q15116)"
  Result: "++++"
- Compound: "O=C(Nc1ccc([N+](=O)[O-])cc1Cl)c1cc(Cl)ccc1O [Compound 10, niclosamide]"
  Target Desc: "PD1-GFP (Homo sapiens, UniProt Q15116)"
  Result: "++++"
